Taken from ChEMBL document CHEMBL1201862.

System: U-251
assaySummary: NCI tumour cell line growth inhibition, 48 h
Activity calls are given as the source filed them. Cut-off read from the data, not from the text of the source: active = GI50 up to about 1.1 µM and inactive = higher.
Hi there, use one of these labels in your reply, thanks! T = active, F = inactive

## Input Per the assay record, what outcome was assigned to `C/C=C/c1cc2c(cc1O)CC[C@@H]1[C@@H]2CC[C@]2(C)[C@@H](O)CC[C@@H]12` ?
## Output T

## Input Tell me the assay call for `COc1ccnc2c1C(=O)c1nc3ccccc3c3ccnc-2c13` please.
## Output T

## Input Query: recorded result category for CC1=CC(=O)C[C@]2(C)[C@@H](O)CC(C(C)CO)C[C@@H]12 (some centres undefined) in this test
## Output F

## Input Answer briefly: the call reported for `Cc1nc2ccc(Cl)cc2c2c1CCN2c1ccccc1` in this assay.
## Output F

## Input Dear colleague, could you share the recorded outcome for `O=C(O)CC(CC(=O)O)n1cccc1` when you have a moment?
## Output F

## Input Per the assay record, what outcome was assigned to `COc1cc(/C=C2\N=C(c3ccccc3)N(c3nc4ccccc4s3)C2=O)cc(OC)c1OC` ?
## Output F

## Input Hi, do you know how CCOC(=O)CCC(NC(=O)c1ccc(Nc2nc3cc(C(F)(F)F)ccc3nc2C(=O)OCC)cc1)C(=O)OCC (centres undefined) came out in this test?
## Output F

## Input Write down the call the test reported for this molecule. Item: `Cc1ccccc1C1=C/C(=C(\SS/C(C(=O)c2ccc(OCC(=O)O)c(Cl)c2Cl)=C2\C=C(c3ccccc3C)SS2)C(=O)c2ccc(OCC(=O)O)c(Cl)c2Cl)SS1`
## Output F

## Input Recorded test call requested for `C[C@H]1CC[C@H](NC(=O)N(CCCl)N=O)CC1`
## Output F

----------
Tested on: IGROV-1
assaySummary: NCI tumour cell line growth inhibition, 48 h
Active and inactive are the calls of the source. Cut-off read from the data, not from the text of the source: active = GI50 up to about 1.1 µM and inactive = higher.
Entry note: the call must match one of Yes for active, No for inactive

## Input Assay outcome for `COC[C@@H](/N=C/N1CCc2cc(OC)c(OC)cc2C1)C(C)(C)C` : what was it?
## Output No

## Input I would be grateful if you could indicate the recorded call for `O=C(NCCSSCCNC(=O)/C(Cc1ccc(O)c(Br)c1)=N/O)/C(Cc1ccc(O)c(Br)c1)=N/O` .
## Output No

## Input GET /call?item= N#C/C(=C\c1ccc(C(O)P(=O)(O)O)cc1)C(N)=O (centres undefined) returns the recorded outcome of this test.
## Output No

## Input Entry CC(C)=CCCC1(Sc2ccccc2)C(=O)OCC1C=C(C)C (centres undefined) : call = ?
## Output No

## Input Assay result, entry `COC(=O)/C=C/c1cc(OC)c2oc(-c3ccc(OC)c(OC)c3)c(C(=O)OC)c2c1` — outcome?
## Output No

## Input Can you look up the reported call for CCN1CCC(O)(c2ccc(Cl)cc2)C(C(=O)c2ccc(Cl)cc2)C1 (centres undefined) for me?
## Output No

## Input Each compound tested received a call. Report the one for `CC1=NN(c2nc(N)nc(NS(=O)(=O)c3cc(C)c(Cl)cc3S)n2)C(C)(C)C1` .
## Output No

## Input // param item: COCO[C@@H]1C[C@H]2C(O)Nc3ccccc3C(=O)N2C1 (some centres undefined) ; yields the recorded call
## Output No

## Input Which result was noted for this compound in the test: COc1cc2c(c(OC)c1OC)-c1ccc(SC)c(=O)cc1C(CC(=O)Oc1cccc(F)c1)C2 (centres undefined)
## Output Yes

## Input // param item: COC1O[C@@H]2CCN3C(=O)[C@@H](OC(=O)c4ccc([N+](=O)[O-])cc4)[C@H]1C23 (some centres undefined) ; yields the recorded call
## Output No

## Input Each compound tested received a call. Report the one for `Oc1cc(O)c2c(c1)O[C@H](c1cc(O)c(O)c(O)c1)[C@@H](O)C2` .
## Output No

## Input // return assay outcome for CCCCCC(/C=C/[C@@H]1[C@@H](C(O)CCCCCC(=O)OC)C(=O)C[C@H]1O[Si](C)(C)C(C)(C)C)OCOCCOC (some centres undefined)
## Output No

## Input Which outcome was assigned to CC(=O)/C=C\C1CC2C=CC1C2 (centres undefined) in this test?
## Output No

## Input Call for entry CCCC1=C(CC)C(C(=O)Nc2c(C)cccc2C)=NC(S)N1 (centres undefined) :
## Output No

## Input Outcome logged for `C=C[C@H]1CN2CC[C@H]1C[C@@H]2[C@@H](O)c1ccnc2ccccc12` in this assay:
## Output No

## Input // param item: `O=C(N/N=C(COc1ccc(Cl)cc1)\N=C\c1cccnc1)c1ccncc1` ; yields the recorded call
## Output No

## Input Which outcome did this test record for the compound COC(=O)C1SC(SC)=NC12c1ccccc1Nc1ccccc12 (centres undefined) ?
## Output No

## Input Which outcome was assigned to Cc1c(O)c(OC2OC(CO)C(O)C(O)C2O)cc2c1C=C[C@@H]1[C@@]2(C)C(=O)C[C@]2(C)[C@@H]([C@@](C)(O)C(=O)CCC(C)(C)O)[C@H](O)C[C@@]12C (some centres undefined) in this test?
## Output No

## Input What was the test verdict on `COc1cc2c3c(c4ccc(O)cc4c2cc1OC)[C@@H](O)[C@@H]1CCCN1C3` ?
## Output Yes
